test system: NCI/ADR-RES ovarian; test: NCI tumour cell line growth inhibition, 48 h
Quick list: GI50 per entry.

- COMPOUND: "O=C(Nc1ccc(CN2CCOCC2)cc1)c1ccc(-c2cc(Cl)ccc2Cl)o1"
  GI50: "17.4 µM"
- COMPOUND: "O=C1c2ccccc2-c2nnc(-c3ccc(Br)cc3)cc21"
  GI50: "> 100 µM"
- COMPOUND: "O=C(/C=C/c1ccc(Cl)cc1)/C=C/c1cc2ccccc2[nH]c1=O"
  GI50: "16.8 µM"
- COMPOUND: "CN1CCN(CCCOc2ccc3nc(Nc4cc(Cl)cc(Cl)c4)ccc3c2)CC1"
  GI50: "1.99 µM"
- COMPOUND: "Nc1nc(/C=C\\c2ccc([N+](=O)[O-])cc2)nc(N2CCN(c3ccccc3)CC2)n1"
  GI50: "25.3 µM"

Let's switch to this compound now.
In: Need GI50 of `CCN1CCN(c2cc(C)nc(N(CCNc3ccnc4cc(Cl)ccc34)Cc3ccc4c(c3)OCO4)n2)CC1` , thanks.
Out: 1.6 µM

----------
system: A549 NSCLC; assay: NCI tumour cell line growth inhibition, 48 h
Quick list: TGI per entry.

These solved cases illustrate the format of a correct answer.
- COMPOUND: "[N-]=[N+]=Nc1ccccc1Oc1ccccc1"
  TGI: "> 100 µM"
- COMPOUND: "Cc1ccc([N+](=O)[O-])cc1S(=O)(=O)Nc1ccc(C(=O)/C=C/c2cccs2)cc1"
  TGI: "> 100 µM"
- COMPOUND: "CCOC(=O)C1(C)CCc2sc(N)c(C#N)c21 (stereo unspecified)"
  TGI: "> 100 µM"
- COMPOUND: "CN1CCN(C(=S)N(C(=O)c2cccs2)C2CCCCC2)CC1"
  TGI: "> 100 µM"
- COMPOUND: "CN1CCN(CCCOc2ccc3nc(Nc4cc(Cl)cc(Cl)c4)ccc3c2)CC1"
  TGI: "3.8 µM"

In: Need TGI of `S=C(S)N1CCN(c2cccc(Cl)c2)CC1` , thanks.
Out: > 100 µM

----------
tested on: HT29 colon; assay: NCI tumour cell line growth inhibition, 48 h
ASSAY READOUT: TGI

These solved cases illustrate the format of a correct answer.
- MOLECULE: "CCOC(=O)C1(C)CCc2sc(N)c(C#N)c21 (stereo not given)"
  REPORTED MEASUREMENT: "> 100 µM"
- MOLECULE: "COc1cc(S(=O)(=O)Nc2nc(-c3ccc(N=Cc4cccs4)cc3)cs2)ccc1Cl"
  REPORTED MEASUREMENT: "> 100 µM"

In: Notebook entry, HT29 colon assay: TGI of `CN1CCN([C@H]2C[C@H]3[C@@H]4CC=C5C[C@@H](N6CCCC6)CC[C@]5(C)[C@H]4CC[C@]3(C)[C@H]2O)CC1` = ?
Out: > 100 µM

In: Notebook entry, HT29 colon assay: TGI of `N=C(N)N=Nc1ccc(NN=C(N)N)c2c1ncc1c2nc2sccn21` = ?
Out: > 100 µM

In: Notebook entry, HT29 colon assay: TGI of `O=C(O)c1cccc2cccc(-c3c4ccc(=O)cc-4oc4cc(O)ccc34)c12` = ?
Out: > 100 µM

In: Notebook entry, HT29 colon assay: TGI of `[N-]=[N+]=Nc1ccccc1Oc1ccccc1` = ?
Out: > 100 µM

In: Notebook entry, HT29 colon assay: TGI of `COc1ccc(C(N)=O)c(OC)c1OCc1ccccc1` = ?
Out: > 100 µM

In: Notebook entry, HT29 colon assay: TGI of `O=C(Nc1ccc(CN2CCOCC2)cc1)c1ccc(-c2cc(Cl)ccc2Cl)o1` = ?
Out: 12 µM

In: Notebook entry, HT29 colon assay: TGI of `CCn1cc(C(=O)O)c(=O)c2cc(F)c(N3CCN(S(=O)(=O)c4ccc(Cl)cc4)CC3)cc21` = ?
Out: 6.21 µM

In: Notebook entry, HT29 colon assay: TGI of `Cc1cc(NS(=O)(=O)c2ccc(NC(=O)c3cccn4c(=O)c5ccccc5nc34)cc2)no1` = ?
Out: > 100 µM

In: Notebook entry, HT29 colon assay: TGI of CCC(C)CN1C(=O)NC(Cc2ccccc2)C1=O (stereo not given) = ?
Out: > 100 µM

In: Notebook entry, HT29 colon assay: TGI of `CCCS(=O)(=O)Nc1ccc(F)c(C(=O)c2c[nH]c3ncc(Cl)cc23)c1F` = ?
Out: 21.8 µM

In: Notebook entry, HT29 colon assay: TGI of `CN(C)CCCNC(=O)N/N=C/c1ccc([N+](=O)[O-])cc1` = ?
Out: > 100 µM

In: Notebook entry, HT29 colon assay: TGI of COc1ccc(C2[C@H]3C(=O)N(c4ccc(Cc5ccc(N6C(=O)[C@@H]7ON(c8ccccc8)C(c8ccc(OC)cc8)[C@@H]7C6=O)cc5)cc4)C(=O)[C@H]3ON2c2ccccc2)cc1 (stereo not given in full) = ?
Out: > 100 µM

In: Notebook entry, HT29 colon assay: TGI of `COc1ccc(NC(=O)/C(Cc2nc3ccccc3[nH]c2=O)=N\O)c(OC)c1` = ?
Out: > 100 µM

In: Notebook entry, HT29 colon assay: TGI of CC(C)(C)C1CCC2c3c([nH]c4ccccc34)C3C(=O)N(c4cccc([N+](=O)[O-])c4)C(=O)C3C2C1 (stereo not given) = ?
Out: > 100 µM

In: Notebook entry, HT29 colon assay: TGI of Cc1ccc([N+](=O)[O-])cc1S(=O)(=O)Nc1ccc(C2=NN(C(=O)c3ccccc3)C(c3ccccc3)C2)cc1 (stereo not given) = ?
Out: > 100 µM

In: Notebook entry, HT29 colon assay: TGI of `Cn1c(=O)[nH]c2nccnc2c1=O` = ?
Out: > 10 µM

In: Notebook entry, HT29 colon assay: TGI of COc1cccc(/C=C2\CCC(CCN(C)C)(C3=CCCC3)C2=O)c1 (stereo not given) = ?
Out: 29.2 µM

In: Notebook entry, HT29 colon assay: TGI of `COc1ccc(C2=C3c4cc(OC)c(OC)cc4CCN3C(=S)SS2)cc1OC` = ?
Out: > 100 µM

In: Notebook entry, HT29 colon assay: TGI of O=C1NC2C(=O)N(Cc3ccccc3)C(=O)C2N1 (stereo not given) = ?
Out: > 100 µM

In: Notebook entry, HT29 colon assay: TGI of `CN1C2CCC1CN(CCOC(c1ccc(F)cc1)c1ccc(F)cc1)C2` = ?
Out: 73.7 µM

In: Notebook entry, HT29 colon assay: TGI of `Cc1ccc2nc(-c3ccc(N)c(Br)c3)sc2c1` = ?
Out: > 100 µM

In: Notebook entry, HT29 colon assay: TGI of `CN(C)c1ccc(C(=O)NCCCCCCC(=O)NO)cc1` = ?
Out: > 32.5 µM

In: Notebook entry, HT29 colon assay: TGI of `COP(=O)(OC)/C(=C/c1c[nH]c2ccccc12)C(=O)O` = ?
Out: > 100 µM

In: Notebook entry, HT29 colon assay: TGI of `CC1=NCCc2cc3[nH]c4ccccc4c3cc21` = ?
Out: 48.7 µM

----------
test system: 786-0 renal; assay: NCI tumour cell line growth inhibition, 48 h
Quick list: TGI per entry.

- COMPOUND: "Cc1ccc(C(=O)Nc2ccccc2)cc1N=NN(C)C"
  REPORTED MEASUREMENT: "44 µM"
- COMPOUND: "O=C1Nc2cc(Cl)ccc2/C1=C\\c1c(-c2ccc(F)cc2)nc2ccccn12"
  REPORTED MEASUREMENT: "2.59 µM"
- COMPOUND: "CSc1ncc2c(n1)-c1ccccc1OC2N1CCCCC1 (centres undefined)"
  REPORTED MEASUREMENT: "> 100 µM"
- COMPOUND: "CC(=O)O[C@H]1CCC2(C)C(=CCC3C2CCC2(C)/C(=N/OC(=O)c4ccc(N(CCCl)CCCl)cc4)CCC32)C1 (some centres undefined)"
  REPORTED MEASUREMENT: "> 100 µM"

Let's switch to this compound now.
In: Need TGI of Cc1cc2ncn(C3CCCO3)c2cc1C (centres undefined) , thanks.
Out: > 100 µM

----------
system: SN12C renal; experiment: NCI tumour cell line growth inhibition, 48 h
ASSAY READOUT: TGI

- COMPOUND: "CC(C)(C)C(=O)N(C(=S)OCc1ccccn1)c1ccccc1"
  TGI: "> 100 µM"
- COMPOUND: "CCOc1nc(-c2ccccc2)cc2c(O)c(C(=O)N/N=C/c3ccc(O)cc3O)[nH]c(=O)c12"
  TGI: "> 39 µM"
- COMPOUND: "CCOC(=O)N1C/C(=C/c2ccc(F)cc2)C(=O)/C(=C/c2ccc(F)cc2)C1"
  TGI: "3.16 µM"

In: Need TGI of `O=C1C=CC(=O)N1C1CCCCCCCCCCC1` , thanks.
Out: 33 µM

In: Need TGI of `O=[N+]([O-])c1ccc2c(c1)Sc1ccccc1N2CCCCCl` , thanks.
Out: > 100 µM

In: Need TGI of O=C1OCC=C1COC1OC(CO)C(O)C(O)C1O (centres undefined) , thanks.
Out: > 100 µM

In: Need TGI of O=C(CC1C(=O)Nc2ccccc2S1=O)Nc1ccccc1 (centres undefined) , thanks.
Out: > 100 µM

In: Need TGI of `CCOC(=O)C(=O)Nc1ccc(C)c(C)c1` , thanks.
Out: > 100 µM

In: Need TGI of `Nc1nc(-c2ccccc2)c(Cl)c(-c2cc(Cl)ccc2O)n1` , thanks.
Out: 87.5 µM
